B1: NCF4 (parent)
chain: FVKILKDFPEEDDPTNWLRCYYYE

Variants of: B1
Assay: protein stability index of a GFP-peptide fusion (GPS, HEK-293T) (PSI 1-6); higher = more stable;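 further: lentivirally expressed fusions sorted by FACS into six bins by GFP to DsRed ratio, PSI derived from sequencing read proportions per bin multiplied by bin number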
Conditions: c terminus: a fixed tail appended
# label = satisfied if protein stability index >= 2 else not satisfied

Variant string: T15C
Cat: not satisfied

Variant string: F1C
Cat: not satisfied

Variant string: W17R
Cat: not satisfied

Variant string: D7H
Cat: not satisfied

Confirm if protein stability index reported for the variant P14I is 2 or above.
not satisfied

Do the same for P9M please
satisfied

Do the same for E10M please
satisfied

Do the same for D7W please
not satisfied

Do the same for K3N please
satisfied

Do the same for T15Y please
not satisfied

Do the same for E10T please
satisfied

Do the same for E10R please
not satisfied

Do the same for D12C please
satisfied

Do the same for Y21E please
not satisfied

Do the same for Y23T please
not satisfied

Do the same for P9V please
satisfied
